# reported normalized RNA/DNA level with ligand (log10); entries follow
B1: library; a variant is named by its letters at N, in order (parent)
chain: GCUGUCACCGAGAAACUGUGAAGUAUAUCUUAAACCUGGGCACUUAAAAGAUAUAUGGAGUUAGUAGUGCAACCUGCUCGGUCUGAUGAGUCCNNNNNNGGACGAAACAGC

Variants of: B1
test.details: normalized RNA/DNA level with ligand (relative to sTRSVctl = 100) (log10 (% of sTRSVctl)); HEK293T; ligand: cyclic di-GMP (c-di-GMP-II aptamer); ligand concentration (+) RNA-Seq: 1 mM; higher = less ribozyme self-cleavage, higher mRNA level
condition.notes: reporter: mCherry (pCS4076), ligand present: yes
Give only the figure.

Below, each entry is followed by its recorded normalized RNA/DNA level with ligand (log10) result.
variant.spec | result.value
ACCUGG | 1.88
AGAACU | 1.82
UAUGUC | 1.85
AGUCGC | 1.85
UAUCAU | 1.81
AUCAUA | 1.74

IN: Given the entry UUCAUU , report its measured normalized RNA/DNA level with ligand (log10).
OUT: 1.89

IN: Given the entry CCUGGA , report its measured normalized RNA/DNA level with ligand (log10).
OUT: 1.76

IN: Given the entry UGAACA , report its measured normalized RNA/DNA level with ligand (log10).
OUT: 1.87
